Target: T1, recombinant human GREM1 (hGREM1-His; C-terminal 10His tagged, R&D, #5190-GR) (human, UniProt O60565 25-184)
T1 construct: range 25-184; also called recombinant human GREM1 with a C-terminal decahistidine tag
T1 sequence: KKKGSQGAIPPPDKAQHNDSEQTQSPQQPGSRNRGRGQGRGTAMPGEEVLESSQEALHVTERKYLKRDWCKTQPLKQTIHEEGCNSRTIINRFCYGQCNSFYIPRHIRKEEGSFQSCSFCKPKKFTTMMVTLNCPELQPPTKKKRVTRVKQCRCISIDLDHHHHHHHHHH
Test: BLI Octet, mAb captured, 100 nM GREM1 without vs with 5 uM heparin;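 further: octet Red96 biolayer interferometry at 25 °C, antibodies captured on anti-human IgG Fc biosensors, association of GREM1 measured with versus without heparin in HEPES-buffered saline, pH 7.4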
I'd be grateful if you could share measured Reduction in Signal from Heparin at 300 sec for these entries.
One number for each entry, in nm.

These solved cases illustrate the format of a correct answer.
{"columns": ["binder", "observed"],
 "data": [
  ["H4H6248P (antibody, human IgG4, V domains shown, H4H prefix = human IgG4 Fc) VH: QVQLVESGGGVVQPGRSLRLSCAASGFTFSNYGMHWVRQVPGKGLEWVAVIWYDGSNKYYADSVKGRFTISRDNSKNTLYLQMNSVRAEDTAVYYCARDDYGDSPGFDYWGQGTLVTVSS VL: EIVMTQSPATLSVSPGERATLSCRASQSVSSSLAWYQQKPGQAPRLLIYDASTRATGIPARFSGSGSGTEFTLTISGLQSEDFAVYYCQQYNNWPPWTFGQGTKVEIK", 0.05],
  ["H4H6233P (antibody, human IgG4, V domains shown, H4H prefix = human IgG4 Fc) VH: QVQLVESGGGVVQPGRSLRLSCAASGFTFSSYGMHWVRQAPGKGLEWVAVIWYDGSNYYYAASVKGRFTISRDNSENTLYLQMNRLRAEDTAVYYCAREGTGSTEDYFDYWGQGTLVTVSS VL: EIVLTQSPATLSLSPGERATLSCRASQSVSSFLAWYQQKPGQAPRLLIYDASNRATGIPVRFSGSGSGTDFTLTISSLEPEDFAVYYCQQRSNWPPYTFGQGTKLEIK", 0.06]
]}

Continue with the next binder.
# Reduction in Signal from Heparin at 300 sec lookup, item H4H2780N (antibody, human IgG4, V domains shown, H4H prefix = human IgG4 Fc) VH: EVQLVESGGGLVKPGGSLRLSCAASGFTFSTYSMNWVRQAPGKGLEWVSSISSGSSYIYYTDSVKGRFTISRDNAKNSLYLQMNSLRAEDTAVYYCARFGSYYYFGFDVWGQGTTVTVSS VL: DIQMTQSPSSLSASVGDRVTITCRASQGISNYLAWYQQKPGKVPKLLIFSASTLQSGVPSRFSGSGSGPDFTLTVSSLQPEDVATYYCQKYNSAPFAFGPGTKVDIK
0

Values from patent US20200157194A1
